Assay: Protein binding in human plasma assessed as free fraction at 0.5 mg/ml measured after 48 hrs by RP-HPLC analysis relative to control
Format: ADME, cell-free
Recorded Metric: fraction unbound at 48 h, 0.5 mg/ml

Requested read-out: fraction unbound at 48 h, 0.5 mg/ml. Entry: CC(=O)O.C[C@@H]1[C@H](O)[C@@H](C)/C=C/C=C/CC/C=C/C=C/C=C/C=C/[C@H](O[C@@H]2O[C@H](C)[C@@H](O)[C@H](N)[C@@H]2O)C[C@@H]2O[C@](O)(C[C@@H](O)[C@H](O)CC[C@@H](O)C[C@@H](O)C[C@@H](O)CC(=O)O[C@H]1C)C[C@H](O)[C@H]2C(=O)NCCO
0.274
